From: ChEMBL document CHEMBL3046642

- test_details: Cytotoxicity against Mus musculus Balb/c (mouse) macrophages after 24 hr by MTT assay
- Type: cell-based, Macrophage
- test_parameters: read-out: LC50
measured_property: CC50 at 24 h

Look over these answered cases.
compound_string	result
C[C@]12CC[C@H](OC(=O)CCl)CC1=CC[C@@H]1[C@@H]2CC[C@]2(C)/C(=N/O)CC[C@@H]12	28 µM
C[C@]12CC[C@H](OC(=O)COc3ccccc3)CC1=CC[C@@H]1[C@@H]2CC[C@]2(C)/C(=N/O)CC[C@@H]12	89 µM

*Q* Using the record for C[C@]12CC[C@H](OC(=O)c3ccc(Cl)cc3)CC1=CC[C@@H]1[C@@H]2CC[C@]2(C)/C(=N/O)CC[C@@H]12 , report its CC50 at 24 h.
*A* 24 µM
